Origin of the recorded values: ChEMBL document CHEMBL1201862

Test system: 786-0
Assay: NCI tumour cell line growth inhibition, 48 h
Activity calls are given as the source filed them. No stated cut-off is given here; in the data, active = GI50 up to about 1.1 µM and inactive = higher.
This section presents compounds with their documented GI50 values.

- smiles.entry: "Cc1ccc(SC[C@@]2(C(F)F)NC(=O)NC2=O)cc1"
  GI50: "> 100 µM (inactive)"
- smiles.entry: "COC(=O)c1cc(NC(=O)c2cc(NC(=O)Cc3c[nH]c4ccccc34)cn2C)cn1C"
  GI50: "56.9 µM (inactive)"
- smiles.entry: "COc1ccc2nc3ccc(OC)cc3c(SCc3ccccc3)c2c1"
  GI50: "76 µM (inactive)"

Value of measured GI50 for the entry OCc1cc2c(ccc3sc4ccc5sc6ccc7ncccc7c6c5c4c32)s1 : 3.55 µM (inactive)

GET /value?item= CCCc1ccc(NCc2cc(OC)c(OC)c(OC)c2)cc1 &field=GI50 returns 22.4 µM (inactive)

So for O=S(=O)(O)c1ccc2c(/N=N/c3ccccc3)c(O)c(S(=O)(=O)O)cc2c1 , the logged GI50 turned out to be > 100 µM (inactive)

* * *

Each entry below carries its recorded GI50.
System: SW-620
Experiment: NCI tumour cell line growth inhibition, 48 h
Active and inactive are the calls of the source. No stated cut-off is given here; in the data, active = GI50 up to about 1.1 µM and inactive = higher.

- molecule: "CC(=O)Nc1cccc(/N=N/N(C)C)c1"
  system.name: "SW-620"
  GI50: "> 100 µM (inactive)"

So, CCOC(=O)c1cc2c3c(cc(OC)c2[nH]1)N(C(=O)OCC)CC3 ? Its GI50 was > 100 µM (inactive)

molecule O=C(O)c1cccc(S(=O)(=O)NN2C(=O)CSC2c2c(O)ccc3ccccc23)c1 (configuration not stated) , GI50 observed: 21.1 µM (inactive)

What the record says about CC(N)(CC(O)(C(F)(F)Cl)C(F)(F)Cl)C(=O)O (configuration not stated) : GI50 is > 10 µM (inactive)

GI50 for CCc1nnc(S)n1/N=C\c1ccc(-c2ccccc2Cl)o1 is 27.7 µM (inactive)

# molecule CCN1C(=O)CS/C1=N/NC(=O)C(O)(c1ccccc1)C1C=CC=CC1 (configuration not stated) ; its GI50 = > 10 µM (inactive)

In plain terms, O=C1Nc2ccccc2C1Cc1ccc([N+](=O)[O-])cc1 (configuration not stated) has a documented GI50 of > 100 µM (inactive)

* * *

Test system: ACHN
Experiment: NCI tumour cell line growth inhibition, 48 h
Calls of active or inactive are those of the source. Rule as the data show it: active = GI50 up to about 1.1 µM and inactive = higher.
measurement.label: GI50

Field: example entries. Status: answers known.
- molecule: "CC(N)(CC(O)(C(F)(F)Cl)C(F)(F)Cl)C(=O)O (stereo not given)"
  GI50: "> 10 µM (inactive)"
- molecule: "CCN1C(=O)CS/C1=N/NC(=O)C(O)(c1ccccc1)C1C=CC=CC1 (stereo not given)"
  GI50: "> 10 µM (inactive)"
- molecule: "O=C(Nc1ccccc1C(=O)O)C(=O)C(C(=O)c1ccccc1-c1ccccc1)C1OC(=O)c2ccccc21 (stereo not given)"
  GI50: "34 µM (inactive)"

Query O=C(c1cc(Cl)cc(Cl)c1)N(C(=O)N1CCN(c2ccccc2)CC1)c1ccccc1 yields GI50 of 72.9 µM (inactive)

// Cc1cccc2c1Oc1ccccc1C2NC(=O)c1ccc([N+](=O)[O-])cc1 (stereo not given) : GI50 value = > 100 µM (inactive)

* * *

System: UACC-62
Test: NCI tumour cell line growth inhibition, 48 h
Activity calls are given as the source filed them. No stated cut-off is given here; in the data, active = GI50 up to about 1.1 µM and inactive = higher.
GI50 values for the compounds below.

- compound: "Cc1cccc2c1Oc1ccccc1C2NC(=O)c1ccc([N+](=O)[O-])cc1 (centres undefined)"
  system.name: "UACC-62"
  GI50: "> 100 µM (inactive)"
- compound: "Cc1ccc(S(=O)(=O)NC(=O)NCc2ccc(S(N)(=O)=O)cc2)cc1"
  system.name: "UACC-62"
  GI50: "> 100 µM (inactive)"

Tested on UACC-62, the item CCC12C=C(C(=O)OC)N3c4ccccc4C4CCN(CCC1)C2C43 (centres undefined) showed GI50 equal to > 100 µM (inactive)

Record Nc1nc(N)c2ncn(-c3ccccc3)c2n1 ; system UACC-62; GI50 = 71 µM (inactive)

CN1C(=O)C(=Cc2ccc(Br)cc2)C(=O)N(C)C1=O tested on UACC-62 gave GI50: > 100 µM (inactive)

Tested on UACC-62, the item N#C/C(=C\c1ccccc1O)C(N)=O showed GI50 equal to 50.1 µM (inactive)

The compound C[C@H](c1ccccc1)N1C(=O)[C@@H](O)[C@H]1[C@H](CO)OCc1ccccc1 , when measured on UACC-62, yielded GI50 of > 100 µM (inactive)

The reported GI50 value, UACC-62, for CCOC(=O)NC reads > 100 µM (inactive)

Observed GI50 on UACC-62, entry CC(=O)OC1(C)C(=O)OC/C2=C/CN(C)CCC(OC(=O)C(O)(C(C)Cl)CC1C)C2=O.c1ccccc1 (centres undefined) , equals > 100 µM (inactive)

* * *

System: SN12C
Test: NCI tumour cell line growth inhibition, 48 h
Active and inactive are the calls of the source. No stated cut-off is given here; in the data, active = GI50 up to about 1.1 µM and inactive = higher.
# GI50 listing for each entry below

- compound: "O=C(Nc1nn(C(=O)c2cccnc2)c(=O)s1)c1ccc(Cl)cc1"
  reported.measurement: "> 100 µM (inactive)"
- compound: "CC(C)NC(=O)OCc1c(COC(=O)NC(C)C)c(-c2cc[n+](COC(=O)C3CC3)cc2)n2c1CCC2"
  reported.measurement: "> 100 µM (inactive)"
- compound: "COc1ccc(OC)c(C2CCc3c(cnc4nc(N)nc(N)c34)C2)c1 (centres undefined)"
  reported.measurement: "8.83 µM (inactive)"

We now examine a further compound.
Kindly note the recorded GI50 for Cc1cc2c(cc1Cl)SC(NNC(=O)c1ccco1)=NS2(=O)=O , which is > 10 µM (inactive)

* * *

Test system: BT-549
Assay: NCI tumour cell line growth inhibition, 48 h
Activity calls are given as the source filed them. Rule as the data show it: active = GI50 up to about 1.1 µM and inactive = higher.
// reported GI50 for each item listed

Known GI50 results, listed for orientation:
- compound: "COCCN(C(C)=O)C1CCC2(SCCS2)c2[nH]c3ccccc3c21 (stereo not given)"
  reported.measurement: "> 100 µM (inactive)"
- compound: "CCOC(=O)CCC(NC(=O)Cc1ccc(Nc2nc3ccccc3nc2-c2ccccc2)cc1)C(=O)OCC (stereo not given)"
  reported.measurement: "46.8 µM (inactive)"
- compound: "C#CCOC(=O)C(N)CSSCC(N)C(=O)O (stereo not given)"
  reported.measurement: "> 100 µM (inactive)"
- compound: "CO/C(=N\\N=C(/C)C(F)(F)F)c1ccncc1"
  reported.measurement: "> 100 µM (inactive)"

Entry COc1ccc(OC)c(C2CCc3c(cnc4nc(N)nc(N)c34)C2)c1 (stereo not given) ; GI50 = 14.3 µM (inactive)

* * *

Test system: SF-295
Experiment: NCI tumour cell line growth inhibition, 48 h
The source made the active and inactive calls. No stated cut-off is given here; in the data, active = GI50 up to about 1.1 µM and inactive = higher.
Bench note: report the call from 1 = active, 0 = inactive

Test call for this compound, please: Cc1cccc(=O)c([O-])c1.Cc1cccc(=O)c([O-])c1.[Bi+3].[Cl-] 0

So what was the verdict on OCc1cc2c(ccc3sc4ccc5sc6ccc7ncccc7c6c5c4c32)s1 in this test? 0

Each compound tested received a call. Report the one for CCn1c(SCc2nnc(Nc3ccccc3)s2)nc2ccccc2c1=O . 0

# fetch the recorded call for O=C1/C(=C2/CCCN2)C(c2ccc[nH]2)=NN1c1ccccc1 here 0

Assay result, entry OC(Cc1ccc2ccccc2n1)(C(F)(F)Cl)C(F)(F)Cl — outcome? 0

* * *

System: SW-620
Assay: NCI tumour cell line growth inhibition, 48 h
The source made the active and inactive calls. Cut-off read from the data, not from the text of the source: active = GI50 up to about 1.1 µM and inactive = higher.
Write down one outcome, taken from active, inactive

Recorded results for 5 molecules are shown here.
- molecule: "Cc1ccc(S(=O)(=O)NC(=O)NCc2ccc(S(N)(=O)=O)cc2)cc1"
  assigned.label: "inactive"
- molecule: "NNC(=O)CSc1nc2ccc(I)cc2c(=O)n1Cc1ccccc1"
  assigned.label: "inactive"
- molecule: "N#CC(C(=O)CCCC(=O)Nc1ccc(Cl)cc1Cl)c1ccc(Cl)cc1 (stereo unspecified)"
  assigned.label: "inactive"
- molecule: "CC(=O)Nc1ccc2[nH]c(C(=O)N3CC(CCl)c4c3cc([N+](=O)[O-])c3ccccc43)cc2c1 (stereo unspecified)"
  assigned.label: "inactive"
- molecule: "COc1ccc(C[C@H](N)C(=O)N2C[C@@H](CO)C[C@@H](n3ccc(=O)[nH]c3=O)C2)cc1"
  assigned.label: "inactive"

Tell me the assay call for COC(=O)C1(C)NCCc2c1[nH]c1ccccc21 (stereo unspecified) please. inactive

Entry Nc1c(Cl)ncnc1N[C@@H]1C[C@H]1CO : call = ? inactive

Write down the call the test reported for this molecule. Item: CC(=O)Oc1c(C)cc(-c2cc(C)c(OC(C)=O)c(C)c2)cc1C inactive

Query: recorded result category for CC1=C/C(=N\O)C(C(O)(C(F)(F)F)C(F)(F)F)C(C)(C)C1 (stereo unspecified) in this test inactive

For this molecule, state the assay outcome: COc1ccc(-c2cc(O)c3cc4c(cc3n2)OCO4)c(OC)c1OC inactive
